Endpoint Label: melting point

Quick check: melting point of O=C(Nc1ccc(Cl)cc1)c1ccc(CSC(=S)N2CCN(c3ncccc3[N+](=O)[O-])CC2)cc1 ? 147 to 148 °C

Given O=C(CSC(=S)N1CCN(c2ncccc2[N+](=O)[O-])CC1)Nc1cccc(Br)c1 , state its recorded melting point. 110 to 112 °C

Recorded melting point for O=C(Nc1ccccc1Cl)c1ccc(CSC(=S)N2CCN(c3ncccc3[N+](=O)[O-])CC2)cc1 , please? 109 to 110 °C

# lookup: melting point of O=C(CSC(=S)N1CCN(c2ncccc2[N+](=O)[O-])CC1)Nc1ccccc1Cl 114 to 116 °C

Which measured melting point value corresponds to O=C(Nc1cccc([N+](=O)[O-])c1)c1ccc(CSC(=S)N2CCN(c3ncccc3[N+](=O)[O-])CC2)cc1 ? 165 to 166 °C

Given Cc1ccccc1NC(=O)c1ccc(CSC(=S)N2CCN(c3ncccc3[N+](=O)[O-])CC2)cc1 , state its recorded melting point. 113 to 115 °C

// lookup melting point for O=C(Nc1cccc(Br)c1)c1ccc(CSC(=S)N2CCN(c3ncccc3[N+](=O)[O-])CC2)cc1 141 to 142 °C

What measured melting point goes with O=C(Nc1ccccc1[N+](=O)[O-])c1ccc(CSC(=S)N2CCN(c3ncccc3[N+](=O)[O-])CC2)cc1 ? 133 to 134 °C

Item under review: O=C(Nc1cccc(Cl)c1)c1ccc(CSC(=S)N2CCN(c3ncccc3[N+](=O)[O-])CC2)cc1 . Reported melting point? 140 to 141 °C

Which measured melting point value corresponds to O=C(CSC(=S)N1CCN(c2ncccc2[N+](=O)[O-])CC1)Nc1ccc(Cl)cc1 ? 143 to 144 °C

Fill blank: measured melting point of the molecule Cc1cccc(NC(=O)CSC(=S)N2CCN(c3ncccc3[N+](=O)[O-])CC2)c1 is ____. 101 to 103 °C

# input molecule: O=C(CSC(=S)N1CCN(c2ncccc2[N+](=O)[O-])CC1)Nc1ccc(Br)cc1 ; wanted: its melting point 136 to 138 °C

Look at this molecule and give its reported melting point. O=C(Nc1ccc(Br)cc1)c1ccc(CSC(=S)N2CCN(c3ncccc3[N+](=O)[O-])CC2)cc1 162 to 164 °C

Give its melting point value. Item: O=C(CSC(=S)N1CCN(c2ncccc2[N+](=O)[O-])CC1)Nc1ccccc1 119 to 120 °C

What measured melting point goes with O=C(CSC(=S)N1CCN(c2ncccc2[N+](=O)[O-])CC1)Nc1cccc([N+](=O)[O-])c1 ? 174 to 175 °C

###

- Tested On: urease (Canavalia ensiformis)
- Assay: biochemical
- Assay type: biochemical
- Run Parameters: indophenol method, urea substrate 100 mM, pH 8.0, triplicate; read-out: Urease inhibition: IC50 ± SEM
Endpoint Label: IC50
Express the reported value numerically, then name its unit.

Name the recorded IC50 for NC(N)=S [Thiourea, thiourea, reference compound] . 23 µM

###

- Tested On: urease (Canavalia ensiformis, UniProt P07374)
- Sequence (P07374 whole entry, looked up): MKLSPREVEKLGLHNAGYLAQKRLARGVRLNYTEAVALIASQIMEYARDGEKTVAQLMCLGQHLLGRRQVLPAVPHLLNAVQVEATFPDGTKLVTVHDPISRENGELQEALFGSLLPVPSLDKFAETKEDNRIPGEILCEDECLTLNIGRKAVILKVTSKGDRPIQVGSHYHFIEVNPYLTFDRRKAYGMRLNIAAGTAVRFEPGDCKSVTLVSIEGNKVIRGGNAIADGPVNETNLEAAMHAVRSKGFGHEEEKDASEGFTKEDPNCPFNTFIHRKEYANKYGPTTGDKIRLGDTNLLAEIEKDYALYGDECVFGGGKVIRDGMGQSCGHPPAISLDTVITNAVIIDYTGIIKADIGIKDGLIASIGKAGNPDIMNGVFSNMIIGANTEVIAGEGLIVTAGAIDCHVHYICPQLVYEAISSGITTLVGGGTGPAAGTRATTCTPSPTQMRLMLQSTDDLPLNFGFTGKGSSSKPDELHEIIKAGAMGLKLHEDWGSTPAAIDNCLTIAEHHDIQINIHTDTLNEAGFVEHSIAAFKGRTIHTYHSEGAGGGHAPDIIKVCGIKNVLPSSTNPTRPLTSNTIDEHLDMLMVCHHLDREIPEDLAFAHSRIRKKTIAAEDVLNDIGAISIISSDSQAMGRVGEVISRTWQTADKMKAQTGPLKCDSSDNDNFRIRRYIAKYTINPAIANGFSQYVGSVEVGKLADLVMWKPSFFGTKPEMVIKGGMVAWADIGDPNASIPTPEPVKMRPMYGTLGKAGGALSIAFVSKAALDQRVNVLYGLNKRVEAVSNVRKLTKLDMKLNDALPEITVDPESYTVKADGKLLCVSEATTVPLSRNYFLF
- Assay: biochemical
- Format: biochemical
Exercise: state measured IC50 for each of the compounds provided.
Write down the numeric answer in µM and omit the unit.

Request body: readout IC50, system urease (Canavalia ensiformis, UniProt P07374), query Cc1ccc(NC(=O)CSC(=S)N2CCN(c3ncccc3[N+](=O)[O-])CC2)cc1 [Compound 5l] . Return the value. 10.6

GET /values?readout=IC50&system=urease (Canavalia ensiformis, UniProt P07374)&item= O=C(Nc1ccc([N+](=O)[O-])cc1)c1ccc(CSC(=S)N2CCN(c3ncccc3[N+](=O)[O-])CC2)cc1 [Compound 7i] 10.5

Can you look up IC50 on urease (Canavalia ensiformis, UniProt P07374) for O=C(CSC(=S)N1CCN(c2ncccc2[N+](=O)[O-])CC1)Nc1ccccc1 [Compound 5a] ? 18.7

Give urease (Canavalia ensiformis, UniProt P07374) IC50 for Cc1cccc(NC(=O)CSC(=S)N2CCN(c3ncccc3[N+](=O)[O-])CC2)c1 [Compound 5k] 18.3

Lookup: IC50 / urease (Canavalia ensiformis, UniProt P07374) / O=C(CSC(=S)N1CCN(c2ncccc2[N+](=O)[O-])CC1)Nc1ccc([N+](=O)[O-])cc1 [Compound 5i] 45.4

Hello, I am looking for reported IC50 with urease (Canavalia ensiformis, UniProt P07374) for O=C(Nc1cccc(Br)c1)c1ccc(CSC(=S)N2CCN(c3ncccc3[N+](=O)[O-])CC2)cc1 [Compound 7e] . Could you help? 16.5

Tell me reported IC50 for O=C(Nc1cccc(Cl)c1)c1ccc(CSC(=S)N2CCN(c3ncccc3[N+](=O)[O-])CC2)cc1 [Compound 7c] , tested with urease (Canavalia ensiformis, UniProt P07374). 10.8

Return IC50 measured with urease (Canavalia ensiformis, UniProt P07374) given this compound: O=C(Nc1ccccc1)c1ccc(CSC(=S)N2CCN(c3ncccc3[N+](=O)[O-])CC2)cc1 [Compound 7a] 11.7
